System: amyloid β production in transfected H4 (human neuroglioma) cells stably expressing APP constructs
test_protocol: In vitro cell-based assay of inhibitors of amyloid β production (ELISA)
conditions_used: transfected H4 cells stably expressing APP; approximately 16 hours incubation; amyloid β in medium by ELISA; Table B; Hydrochloride; read-out: ACTIVITY (IC50, inhibition of amyloid β production)
Structures can show the parent of a compound that is named as a salt.
readout_kind: IC50

get_value(item= O=S1(=O)CCN(CCCOc2ccccc2CN(c2ccccc2)S(=O)(=O)c2ccc(Cl)cc2)CC1 [Example 313, Hydrochloride] , readout=IC50) returns 50 to 100 nM
